procedureText: folding enthalpy; higher = less favourable; fluorescence melt of hairpins on a sequencing array, two-state fit
testSettings: sodium 0.088 M
For each entry below, report its folding enthalpy value.
Express the result in kcal/mol but write the number alone.

The sequence listed as GATCATGTTAATGATC ((((((....)))))) shows folding enthalpy equal to -40.5

Record GATCGAGGAAACTCGGTC ((.((((....)))).)) . Reported folding enthalpy: -30.4

Noted for GCACTGCGAAAGCTCTGC (((..((....))..))) : its folding enthalpy reads -17.4

The sequence identified as GCTAAGACGAAAGTCAGC (((..(((....)))))) registered its folding enthalpy at -20.4

Measured folding enthalpy of GTAGCGCGAAAGCGGTAC (((.(((....))).))) : -25.3

According to the records, this sequence GATCCTCTCAAGGATC ((((((....)))))) displays folding enthalpy of -39.9

# sequence GCGTCGCGAAAGCCGCGC (((..((....))..))) ; its folding enthalpy = -29.7

Sample GCAACGCGAAAGCCGTGC (((..((....))..))) ; folding enthalpy observed: -14.8

Noted for GCGATGAATCGC ((((....)))) : its folding enthalpy reads -26.2

The recorded folding enthalpy for GCCTTGCGAAAGCATGGC (((.(((....))).))) is -44.8

The reported value for GCCAGGGGAAACCCCGAC (.(.(((....))).).) in terms of folding enthalpy is -9.47

Per the records, this sequence ( GATCTGTAGTCAGATC ((((((....)))))) ) has folding enthalpy equal to -35.5

====

procedureText: melting temperature; fluorescence melt of hairpins on a sequencing array, two-state fit, raised by 9.35 °C to match UV melts
testSettings: sodium 0.088 M
Assign Tm to each entry below.
State just the number; it will be interpreted in °C.

Form field Tm, entry GGACTTGGAAACAAATCC (((.(((....))).))) : 35.3

Reported Tm ( GGTCGAACGAAAGTTACC (((..(((....)))))) ) = 26.6

Entry GCGTAGCCGAAAGGCCGC (((..(((....)))))) — recorded Tm = 58

# Tm (sequence: GCCAGCGGAAACACTGGC (((((.(....).))))) ) is 52.8

What the record says about GGACCCGCGAAAGCGTCC (((..(((....)))))) : Tm is 36.7

Measured Tm of GGTTAGACGAAAGTCACC (((..(((....)))))) : 27

Lookup result for GTAATAGAAATATTAC ((((((....)))))) ; measured Tm: 32

get_value(item= GCGAAACGAAAGTTCGC (((.(((....)))))) , readout=Tm) returns 62.7

Sample GCTCCAGAAATGGAGC ((((((....)))))) ; Tm observed: 65.8

For this sequence ( GCCGACGAAAGTCGTGGC ((((((....)))..))) ), measured Tm is 57

The measured Tm associated with GTAGGAGGAAACTCCCAC ((.((((....)))).)) reads 30.9

Reported Tm for GCACGCCGAAAGGCCTGC (((.(((....))).))) was 48.8

The value of Tm measured for the sequence CGTTCCGGAAACGGGACG (((.(((....))).))) turned out to be 57.6

What the record says about GATCGAGGGGTCGATC ((((((....)))))) : Tm is 45.6

The measured Tm associated with GGAAAACGAAAGTTGTCC (((.(((....))).))) reads 44.6

Short answer for GTCCAAGGAAACCTGGAC (((((.(....).))))) : Tm was 46.8

Summary for this sequence, GCGCAGCGAAAGCTAAGC ((..(((....)))..)) : Tm is 58.4

Noted for GCACGAGGAAACTCACGC ((..(((....)))..)) : its Tm reads 31.7

For this sequence ( GTTTTGCGAAAGCATAAC (((.(((....))).))) ), measured Tm is 45.3

For reference, reported Tm for GCAAGCGAAAGCTCTGC ((((((....))).))) stands at 45.9

// Tm value for GCACATGGAAACACGTGC ((((.((....)).)))) : 46.7

Documented Tm of GGTCACGGAAACATGACC (((((.(....).))))) : 44.4

The measured Tm associated with GGGTGCGAAAGCAACCCC ((((((....)))..))) reads 66.6

What the record says about GTGTACGAAAGTATGCAC ((((((....)))..))) : Tm is 35.6

Field Tm (entry GGGTACGAAAGTACACCC ((((((....)))..))) ) reads 50.2

====

procedureText: melting temperature; fluorescence melt of hairpins on a sequencing array, two-state fit, raised by 9.35 °C to match UV melts
testSettings: sodium 0.088 M
measuredMetric: Tm (°C)
Report the figure in °C without appending any unit label.

Entry under test: GATCATGACGATGATC ((((((....)))))) . Its Tm was 50.8

Documented Tm of GCAAGGCGAAAGCGTTGC ((((.((....)).)))) : 67.2

In plain terms, GAAAGAGCGAAAGCTTTC (((..(((....)))))) has a documented Tm of 32.5

get_value(item= GCGCTTCGAAAGAACCGC (((.(((....))).))) , readout=Tm) returns 46.4

Recorded result, GTGGAGGGAAACCTTCGC (.(.(((....))).).) , Tm: 34.1

Record CGCGGACAACTCCGCG ((((((....)))))) , field Tm: 64.9

====

procedureText: folding enthalpy; higher = less favourable; fluorescence melt of hairpins on a sequencing array, two-state fit
testSettings: sodium 0.088 M
measuredMetric: folding enthalpy (kcal/mol)
Numbers only; they are read as kcal/mol.

Field folding enthalpy (entry GATCCAGCTTTGGATC ((((((....)))))) ) reads -32.1

Entry GGGATACGAAAGTACCCC (((.(((....))).))) — recorded folding enthalpy = -37.4

The sequence identified as GCGGGCCGCCGC ((((....)))) registered its folding enthalpy at -15.5

Entry GATCGTGTGCACGATC ((((((....)))))) — recorded folding enthalpy = -39.3

Lab note: measured folding enthalpy of GTGGCAACGAAAGTTCAC (((..(((....)))))) was -7.15

Noted for GCGGCGCGAAAGCGTAGC ((..(((....)))..)) : its folding enthalpy reads -26.1

Entry under test: CGTGCGGAAACGCCAACG ((((((....)))..))) . Its folding enthalpy was -19.2

GATCTTAGGGAAGATC ((((((....)))))) has a reported folding enthalpy of -26.3

Given item GGTGATGGAAACATTACC (((.(((....))).))) , the value recorded as its folding enthalpy is -30.2

Reported folding enthalpy ( GATGGCGGAAACGCTGTC ((..(((....)))..)) ) = -17.1

response.value for GCGGGAGACCGC ((((....)))) (field: folding enthalpy) = -14.4

Sure, the documented folding enthalpy for GACACTACGAAAGTAGTC (((..(((....)))))) is -10.3

The measured folding enthalpy associated with GTCAGCCGAAAGGCAGAC (((.(((....))).))) reads -24.4

Lookup result for GATCATTGTTATGATC ((((((....)))))) ; measured folding enthalpy: -37

Sample GCGAAAGGAAACTTTCGC (((((((....))))))) ; folding enthalpy observed: -44.2

Field folding enthalpy (entry GATCGTATTACGATC ((((((...)))))) ) reads -36.1

Per the records, this sequence ( GCTAAGCGAAAGCAGAGC (((..((....))..))) ) has folding enthalpy equal to -23.9

Recorded folding enthalpy (sequence CGGAGCGGAAACGCCCCG (((.(((....))).))) ): -30.8

folding enthalpy measured on GCTTCCGAAAGGACGAGC ((((((....)))..))) = -18.8

Entry under test: GATCACAATCGTGATC ((((((....)))))) . Its folding enthalpy was -38.5

// recorded folding enthalpy for GGCGATCCGAAAGGAGCC (((..(((....)))))) : -35.4

So, ATCCAGAAATGGAT (((((....))))) ? Its folding enthalpy was -14.3

// recorded folding enthalpy for GGACTGGGAAACCAATCC (((.(((....))).))) : -28

Record GATCTGTCTACAGATC ((((((....)))))) . Reported folding enthalpy: -47.5

Lab note: GAAATCGGAAACGACTTC (((.(((....))).))) gave folding enthalpy of -24.8

Record GCAACCGAAAGGTGTGC ((((((....))).))) , field folding enthalpy: -23.2
